Items are presented alongside their recorded apparent KD of K4 kissing-loop reporter.
- Test system: K4 kissing-loop RNA reporter;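 also: bound reporter read as fluorescence of individual clusters on recovered sequencing chips by microscopy, with normalized cluster intensities fitted with a binding model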
- experimentalProtocol: apparent KD of K4 kissing-loop reporter; higher = weaker reporter binding
- conditionInfo: Eterna round: R107; input ligand: arginine 13.2 mM
endpointLabel: apparent KD of K4 kissing-loop reporter (nM)

sequenceentry=AAGCAGUCACUCGCAGCCAUCGAAGAUGGGCGAGGACCGGUACGGCCGCCACUCGGAGUGAUGUUCCGCAGACUGCAAAAUAAAA result=343
sequenceentry=UGUGUUUACCUGACUCAGUGAUGUUGAGAAGGAGCGUUCGAAAGAACAGGUAGGUCGCUCAACCUAAAUUCAGGUGAGCACUAAA result=223
sequenceentry="UGACUGGAUUGAAGGAGCGCUAAACUCCUAGUGAUGUUAGGGACACGAGACAAAGUCUCGAGGCAGGUAGGUCGCAAUCUAGUCU [FiskerMod 6 - Jieux - Same State - Arginine B]" result=225
sequenceentry="UGUGAUGUGUAGUGUUAUGUUUUGCGGGAUACCAGAGUCUUUUUAUUCCCUUGGCAGCUUGAGUGAUGUUUGAUGCUGUUGUUGU [pwwamullin]" result=349
sequenceentry="AGACUACCACACUGUCAAUAGACAGUGAACUAGGAUAUGCUGAUAAGCAGAAGGAGUGAUGUUCCUAAUAAGGUAGUCAUAUAAU [FmnAX 15 #SwitchBubble #StaticStem #K4Early]" result=482
sequenceentry="GCAACAUUGGCAGGAUAUCAUUCUGAGUGAUGUUCAGGGUUCAGCUAACGAAAGUUAGUUGUACCAUGAGAAGGGCUAAUGUUGC [Omei KL FMN B SS A v1]" result=886

###

- Tested on: MS2 coat protein
- experimentalProtocol: apparent KD of MS2 coat protein; designed switch direction (-1 OFF switch, 1 ON switch): 1; higher = weaker reporter binding
- conditionInfo: Eterna round: R95; input ligand: none
Record Yes whenever apparent KD of MS2 coat protein is at 0.2 µM or higher; record No when lower.

sequenceentry="UUAAGCCACGAGCAGGAUAUGUAUUAAAAUACAUGAGGAUCACCCAUGUGCAGGUGUAACACCUGACAGAAGGGCCAAUCGCGGC [Soondi - 1] (puzzle: Same State 2)" studytarget="MS2 coat protein" classassignment=Yes
sequenceentry="CGAUGAAACUAAGGAAGAAGAGUUGAAGUACAUGAGGAUCACCCAUGUCAGAGCUUUUUGCUCGUCAUGAACAGGAA [JR_SHM208a_Sub005] (puzzle: Sensor for hsa-mir-208a)" studytarget="MS2 coat protein" classassignment=No
sequenceentry="GUACUACAUGAGGAUCACCCAUGUACAAAGGUACGAGGAUAUGCAUGGACGAAAGUUGGUGCAGAAGGCGUGGUAC [Pin2Pin #5] (puzzle: Same State 1)" studytarget="MS2 coat protein" classassignment=No
sequenceentry="AGAGAACAUGAGGAUCACCCAUGUGGGAGAUGCAUAGGAUAUAGGAGAGAGAGCGAGGAACUAGAAGGAUGAUGGA [JR_SS1_Sub081] (puzzle: Same State 1)" studytarget="MS2 coat protein" classassignment=No
sequenceentry="GCUACAUCGAGCGAGGAUAUGCGGCGUAUAACAUGAGGAUCACCCAUGUCCUUCGAAUCGAGUACGCAGAAGGCGCUACGGUAGC [Big Heel] (puzzle: Same State 2)" studytarget="MS2 coat protein" classassignment=Yes
sequenceentry="AAGAGAGGAAGCGAGGAUAUCGUGGGAGGGACAUGAGGAUCACCCAUGUAGGAUGUAGAGAGGAACGAGAAGGCGCAGGAAAGAA [JR_SS2_Sub073] (puzzle: Same State 2)" studytarget="MS2 coat protein" classassignment=No
sequenceentry="AGUCCAGCCUGAGCUGGACAAAAGCAUGUACAUGAGGAUCACCCAUGUUCAUGUACAAGUUUUUUGCUCGUCUUAAA [Zipper 52 - 10] (puzzle: Sensor for hsa-mir-208a)" studytarget="MS2 coat protein" classassignment=No
sequenceentry="AGUCCAGCCUGAGCUGGACAAAAGCAUGUACAUGAGGAUCACCCAUGUCGUGUACAAGCUUUUUGCUCGUCUUAAAA [Zipper 46 - 5] (puzzle: Sensor for hsa-mir-208a)" studytarget="MS2 coat protein" classassignment=Yes
sequenceentry="GUCCAACAUGAGGAUCACCCAUGUCGGGCGUGCACAGGAUAUCGCGCCGGGAAAGACCAGCGAGAAGGGUGAUCGA [Leriqu] (puzzle: Same State 1)" studytarget="MS2 coat protein" classassignment=No
sequenceentry="AUAAAACAUGAGGAUCACCCAUGUCAACAAAUUCGAGGAUAUGGGCAAAUAAAAUAAGAACCAGAAGGCGAAUAAU [salish99_ss1_r3_038] (puzzle: Same State 1)" studytarget="MS2 coat protein" classassignment=No
sequenceentry="AGUCCAGCCUGAGCUGGACAAAAGCAUGUACAUGAGGAUCACCCAUGUCAUGUACAGGCUUUUUGCUCGUCUUAAUA [Zipper 49 - 7] (puzzle: Sensor for hsa-mir-208a)" studytarget="MS2 coat protein" classassignment=Yes

###

- System: MS2 coat protein
- experimentalProtocol: apparent KD of MS2 coat protein; designed switch direction (-1 OFF switch, 1 ON switch): -1; higher = weaker reporter binding
- conditionInfo: Eterna round: R95; input ligand: FMN 200 uM
endpointLabel: apparent KD of MS2 coat protein

sequenceentry="GAGGCAUGCUGAGGUCCACACAUGAGGAUCACCCAUGUAAUGACAAGCUUUUUACUCAUCUUAUCGCUAUCGCGUUC [Tiinarre] (puzzle: Sensor v3, turn-off variant 1)" endpointlabel="apparent KD of MS2 coat protein" result="19.1 nM"
sequenceentry="UUUAAUUUUUUUUUUUUACAAGCUUUUUGCUCGUCUUAUACAUGAGGAUCACCCAUGUGAAUGGAGGGUAAAUUAUC [JMF 84] (puzzle: Sensor v3, turn-off variant 2)" endpointlabel="apparent KD of MS2 coat protein" result="19.4 nM"
sequenceentry="GGUACUAUCACCUGAGUGGUAGUGCCAUAAGCUUGUGAUACAUGAGGAUCACCCAUGUCCUCAUUUGCUCGUCUUAU [JL-sv3-2.27 JL mod] (puzzle: Sensor v3, turn-off variant 2)" endpointlabel="apparent KD of MS2 coat protein" result="486 nM"
sequenceentry="GUGAAACAUGAGGAUCACCCAUGUGAGGAUAUGAUUUAGUAAUGGAGACAGUACAUAUUCAGAAGGCACAAUGG [Mat - Mod of JL D76] (puzzle: Exclusion 1)" endpointlabel="apparent KD of MS2 coat protein" result="55.2 nM"
sequenceentry="CCAGGCAGUGUGAGGAUAUGCUGGUCCUUGGAUCAGCAGAAGGCACAUGAGGAUCACCCAUGUGAAUAGCUUGG [JL bmx4 3.25] (puzzle: Brourd's mod of Exclusion 4)" endpointlabel="apparent KD of MS2 coat protein" result="105 nM"
sequenceentry="GGUUGGCGAGGAUAUACAUGAGGAUCACCCAUGUGAUAGAAAAAAGUGAGGAAGAAAAGUAGAAGGCGCUGACG [salish99_ex3_r3_009] (puzzle: Exclusion 3)" endpointlabel="apparent KD of MS2 coat protein" result="723 nM"
sequenceentry="UAAUGCAAGCAAAGAUCUUACAUGAGGAUCACCCAUGUGCUCGUCUUAUAAAGUACUAUCACGAAAGUGAUAGUACA [Mat - Sensor v3 - turn-off var 1 - Eli Mod - D91] (puzzle: Sensor v3, turn-off variant 1)" endpointlabel="apparent KD of MS2 coat protein" result="27.6 nM"
sequenceentry="UAGAAACAUGAGGAUCACCCAUGUGAGGAUAUGAAAAAGAAAAGAAAAGAAAGAAGAAUCAGAAGGCACAAAGG [salish99-ex1_r3_082] (puzzle: Exclusion 1)" endpointlabel="apparent KD of MS2 coat protein" result="38.1 nM"
sequenceentry="AGUAACUAUCACGAAAGUGAUAGUUACAACAAGUGAUAAACAUGAGGAUCACCCAUGUCCUCAUUUGCUCGUCUUAU [Sensor 3 - 9] (puzzle: Sensor v3, turn-off variant 2)" endpointlabel="apparent KD of MS2 coat protein" result="256 nM"
sequenceentry="UUUAAUUUUUUUUUUUUACAAGCUUUUUGCUCGUCUUAUACAUGAGGAUCACCCAUGUGAAUGGAAGAUAAAUUAUC [JMF 8] (puzzle: Sensor v3, turn-off variant 2)" endpointlabel="apparent KD of MS2 coat protein" result="17.8 nM"

###

- Test system: MS2 coat protein
- experimentalProtocol: apparent KD of MS2 coat protein; designed switch direction (-1 OFF switch, 1 ON switch): -1; higher = weaker reporter binding
- conditionInfo: input ligand: FMN 200 uM
endpointLabel: apparent KD of MS2 coat protein (nM)

sequenceentry="UUCGGCGCAGGAUAUACAGUUCUGUGUUGAAUCGGCGCGGGACAUGAGGAUCACCCAUGUAGAAGGGUGUUGGG [-26.9, -23.2 kcal, A 22%] (Eterna round: R97, puzzle: Exclusion 2)" unitstring=nM result=220
sequenceentry="CUCCGGCGUGUAGGAUAUGGUUCCGUUUAGGUUCCAGAAGGACAUGAGGAUCACCCAUGUACAUGUCGUCGGUCGUCACCGGGC [salish99_ExNG1_r04_213] (Eterna round: R96, puzzle: Exclusion NG 1)" unitstring=nM result=87.3
sequenceentry="UAAUAACAUGUAGGAUAUGCGUGGCGAAGCUAUGCAGAAGGACAUGAGGAUCACCCAUGUUAAAGCGUCUGAGAACAGAUGCGA [Mat - Exclusion NG 1 - Mod of JL - D98] (Eterna round: R96, puzzle: Exclusion NG 1)" unitstring=nM result=165
sequenceentry="CCACGACAUGAGGAUCACCCAUGUGAGGAUAUGGCCUGUAAGGCGUGAGCUGAAUCAAUCAGAAGGCGCGUGGG [salish99_ex1_r4_057] (Eterna round: R97, puzzle: Exclusion 1)" unitstring=nM result=92.4
sequenceentry="CGAUAAUCCUAGGAUAUGCUAGACGAAAGUCUAGCAGAAGGAGGAACAUGAGGAUCACCCAUGUGUCCUAAUCG [Mat - Exclusion 6 - Eli Mod - D17] (Eterna round: R97, puzzle: Exclusion 6)" unitstring=nM result=30.9
sequenceentry="ACGCUAUGAGGAUAUACAUGAGGAUCACCCAUGUCCCGAUGGUGUUUCCAUUGGAGACGUAGAAGGUAUGGUUA [Eternabot (L2) Solution 13] (Eterna round: R97, puzzle: Exclusion 3)" unitstring=nM result=169
sequenceentry="CGACGACAUGAGGAUCACCCAUGUCAGGAUAUGGAAAACCAGAAUAUAUUUUAACUUUCCAGAAGGGACAGGUC [Eternabot (Original) Solution 1] (Eterna round: R97, puzzle: Exclusion 1)" unitstring=nM result=19.6
sequenceentry="CUCCAGACAGGAUAUACGAGGCUGUGUUCCCAUUAUAGGACACAUGAGGAUCACCCAUGUAGAAGGGUCAAUGG [Eternabot (L1) Solution 28] (Eterna round: R97, puzzle: Exclusion 2)" unitstring=nM result=286
sequenceentry="ACAUGAGGAUCACCCAUGUACACGUAAUGGCUCAUGUAGAGUGAGGAUAUGUGAGACGAACGAGCACAGAAGGCACAAGACAGG [Deportation 10 - Jieux - Exclusion NG 3] (Eterna round: R96, puzzle: Exclusion NG 3)" unitstring=nM result=38.3
sequenceentry="UAAGUUUACCGAGGAUAUGGUUUUUCCUAUUAACCAGAAGGCGGACUCAACAUGAGGAUCACCCAUGUAUAAAGGGUAUUAGGU [JR_ExcNG1_Sub044] (Eterna round: R96, puzzle: Exclusion NG 1)" unitstring=nM result=88.5
sequenceentry="GCCGAAAGUGUGAGGAUAUACCUAUGGAUACAUAGGUAGAAGGCACAUGAGGAUCACCCAUGUUCCUAAUCGGC [Eli bmx4 4.18] (Eterna round: R97, puzzle: Brourd's mod of Exclusion 4)" unitstring=nM result=306
sequenceentry="GCUAAGGUAGGAUAUUGCGACGUGAACAUGAGGAUCACCCAUGUCUGGUCUGACAGGCAUCAAGAAGGGCCAGUCU [Eternabot (L2) Solution 30] (Eterna round: R97, puzzle: Exclusion 5)" unitstring=nM result=49.7
sequenceentry="ACAGUCACAUGGGUACCAGACAUGAGGAUCACCCAUGUGACAGGUACUUUGUGGCGUCUUGUAUAAUUAAUAAUCAA [Sensor v2, turn off variant (Maaon - vinnie MOD7)] (Eterna round: R96, puzzle: Sensor v2, turn-off variant)" unitstring=nM result=9.97
sequenceentry="UCGCUCCGUGUAGGAUAUCGCUGUAUGAUGCGGCGAGAAGGACAUGAGGAUCACCCAUGUAUGUUAUUAUCACGCGUGGCGCAA [Design 64] (Eterna round: R96, puzzle: Exclusion NG 1)" unitstring=nM result=21.8
sequenceentry="UAAACAUGGAUAUAACAGUACAUGAGGAUCACCCAUGUUAAUACGAUAGAUUAUAACAAGCUUUUUUGUCGUCUUAA [Cooked Book] (Eterna round: R97, puzzle: Sensor, turn-off variant 1)" unitstring=nM result=116
sequenceentry="ACACAGCGAGGAUAUACAUGAGGAUCACCCAUGUGGCGGCCGUUACGGUAGCACUAGUGUAGAAGGCGCAUUGG [EX3 #35] (Eterna round: R97, puzzle: Exclusion 3)" unitstring=nM result=155
sequenceentry="AUCAGCUCGUCAGGAUAUAUAUACAUGAGGAUCACCCAUGUAAGAUCAGGCUUCGGCCAAUGUAUAUAGAAGGGACGAGCUGAU [ENG2/11-B3] (Eterna round: R96, puzzle: Exclusion NG 2)" unitstring=nM result=1550
sequenceentry="UUCAUGUAAGGAUAUGUAGUGAUGACGAAAUUUGUCGUUAAACAGAAGGUACAUGAGGAUCACCCAUGUAGCUA [EX4 B.9] (Eterna round: R97, puzzle: Exclusion 4)" unitstring=nM result=133
